# Test system: C6
# Run Description: Neuroprotective activity in rat C6 cells assessed as NGF secretion at 20 uM incubated for 24 hrs by ELISA relative to control
# Type: functional
Endpoint Name: Activity (%)
Express it in %; write the number only.

Recorded Activity, per entry:
{"columns": ["Smiles", "Activity (%)"],
 "data": [
  ["C=C1CC[C@@H]2[C@](C)(CCC[C@]2(O)C(=O)O[C@@H]2O[C@H](CO)[C@@H](O)[C@H](O)[C@H]2O)[C@H]1CCC1=CCOC1=O", 98.6],
  ["C=C1CC[C@@H]2[C@](C)(CCC[C@]2(C)C(=O)O[C@@H]2O[C@H](CO)[C@@H](O)[C@H](O)[C@H]2O)[C@H]1CCC1=CCOC1=O", 142.4]
]}

Now turn to the next molecule.
Exercise: For C[C@]12CCC[C@](C)(C(=O)O[C@@H]3O[C@H](CO)[C@@H](O)[C@H](O)[C@H]3O)[C@@H]1CC[C@](C)(O)[C@@H]2CCC1=CCOC1=O , what is its reported Activity?
Key: 106.1
